# testedSystem: ATR/ATRIP (Homo sapiens, UniProt Q13535)
# Construct: human ATR, full length, GenBank ID: NM_001184.3; p53: Sf21 insect cells
# Sequence (Q13535 whole entry): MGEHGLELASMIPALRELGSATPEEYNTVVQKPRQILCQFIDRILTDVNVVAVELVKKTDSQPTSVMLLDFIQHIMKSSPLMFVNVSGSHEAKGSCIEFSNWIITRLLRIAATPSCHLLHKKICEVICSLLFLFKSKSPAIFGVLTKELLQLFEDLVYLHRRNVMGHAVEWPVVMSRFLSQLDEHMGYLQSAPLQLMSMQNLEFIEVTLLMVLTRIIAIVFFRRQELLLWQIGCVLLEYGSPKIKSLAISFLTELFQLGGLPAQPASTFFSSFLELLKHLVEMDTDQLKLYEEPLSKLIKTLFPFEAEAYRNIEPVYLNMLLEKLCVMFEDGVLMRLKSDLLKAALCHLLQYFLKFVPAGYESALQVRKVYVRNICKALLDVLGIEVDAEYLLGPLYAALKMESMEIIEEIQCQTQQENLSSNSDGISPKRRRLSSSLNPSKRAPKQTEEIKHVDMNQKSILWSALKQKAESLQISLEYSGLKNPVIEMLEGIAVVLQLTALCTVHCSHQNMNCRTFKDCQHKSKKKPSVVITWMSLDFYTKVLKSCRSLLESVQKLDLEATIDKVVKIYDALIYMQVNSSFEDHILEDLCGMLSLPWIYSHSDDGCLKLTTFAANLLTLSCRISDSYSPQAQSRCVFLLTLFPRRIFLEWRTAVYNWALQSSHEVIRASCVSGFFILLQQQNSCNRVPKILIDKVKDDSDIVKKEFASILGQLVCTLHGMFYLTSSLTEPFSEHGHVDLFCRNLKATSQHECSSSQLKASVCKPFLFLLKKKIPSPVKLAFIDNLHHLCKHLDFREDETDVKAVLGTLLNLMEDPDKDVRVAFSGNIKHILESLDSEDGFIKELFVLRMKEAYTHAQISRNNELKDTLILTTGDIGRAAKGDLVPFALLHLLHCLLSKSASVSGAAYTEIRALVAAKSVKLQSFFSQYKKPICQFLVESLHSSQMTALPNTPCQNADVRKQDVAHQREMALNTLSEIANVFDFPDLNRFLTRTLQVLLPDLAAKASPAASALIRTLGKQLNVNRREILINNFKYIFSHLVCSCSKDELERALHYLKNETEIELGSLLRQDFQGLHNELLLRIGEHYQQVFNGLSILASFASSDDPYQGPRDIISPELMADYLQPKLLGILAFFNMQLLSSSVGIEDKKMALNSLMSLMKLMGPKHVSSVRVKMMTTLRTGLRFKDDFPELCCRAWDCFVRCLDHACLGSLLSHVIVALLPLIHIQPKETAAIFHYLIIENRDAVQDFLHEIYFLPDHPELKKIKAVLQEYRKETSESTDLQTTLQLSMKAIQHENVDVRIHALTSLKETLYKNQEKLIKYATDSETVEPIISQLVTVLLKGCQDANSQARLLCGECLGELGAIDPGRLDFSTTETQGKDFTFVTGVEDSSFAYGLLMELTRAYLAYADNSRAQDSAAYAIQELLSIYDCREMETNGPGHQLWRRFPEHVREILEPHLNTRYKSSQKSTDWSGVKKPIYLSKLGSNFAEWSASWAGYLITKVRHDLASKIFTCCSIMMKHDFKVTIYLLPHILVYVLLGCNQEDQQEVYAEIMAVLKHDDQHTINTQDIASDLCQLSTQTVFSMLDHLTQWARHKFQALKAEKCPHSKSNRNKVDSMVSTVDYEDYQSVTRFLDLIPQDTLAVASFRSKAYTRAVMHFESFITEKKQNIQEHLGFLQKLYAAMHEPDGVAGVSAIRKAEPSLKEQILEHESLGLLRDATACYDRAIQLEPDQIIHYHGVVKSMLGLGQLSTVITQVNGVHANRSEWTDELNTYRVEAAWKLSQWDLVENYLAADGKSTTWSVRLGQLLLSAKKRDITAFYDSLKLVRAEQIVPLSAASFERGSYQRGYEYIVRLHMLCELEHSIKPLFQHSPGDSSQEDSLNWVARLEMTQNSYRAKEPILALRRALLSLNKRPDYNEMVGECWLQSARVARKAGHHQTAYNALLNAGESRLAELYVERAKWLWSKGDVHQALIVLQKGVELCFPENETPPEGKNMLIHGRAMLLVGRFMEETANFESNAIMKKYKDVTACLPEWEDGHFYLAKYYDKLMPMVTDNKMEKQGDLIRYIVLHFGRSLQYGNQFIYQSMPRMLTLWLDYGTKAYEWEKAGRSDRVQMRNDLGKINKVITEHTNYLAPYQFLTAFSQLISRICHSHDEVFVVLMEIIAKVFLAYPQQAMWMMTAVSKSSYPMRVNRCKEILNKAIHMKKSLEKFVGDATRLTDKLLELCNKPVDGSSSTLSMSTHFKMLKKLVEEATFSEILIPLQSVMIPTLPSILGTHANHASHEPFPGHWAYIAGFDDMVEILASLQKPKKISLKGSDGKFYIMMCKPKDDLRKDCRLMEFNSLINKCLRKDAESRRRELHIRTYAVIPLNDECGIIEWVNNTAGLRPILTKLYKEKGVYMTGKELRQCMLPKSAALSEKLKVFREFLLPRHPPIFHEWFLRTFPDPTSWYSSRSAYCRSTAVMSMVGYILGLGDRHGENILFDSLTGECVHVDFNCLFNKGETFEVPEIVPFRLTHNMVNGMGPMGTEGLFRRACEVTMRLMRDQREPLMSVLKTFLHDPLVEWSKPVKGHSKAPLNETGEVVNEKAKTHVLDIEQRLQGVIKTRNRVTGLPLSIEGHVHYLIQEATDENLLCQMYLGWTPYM
# Sequence (Q8WXE1 whole entry partner): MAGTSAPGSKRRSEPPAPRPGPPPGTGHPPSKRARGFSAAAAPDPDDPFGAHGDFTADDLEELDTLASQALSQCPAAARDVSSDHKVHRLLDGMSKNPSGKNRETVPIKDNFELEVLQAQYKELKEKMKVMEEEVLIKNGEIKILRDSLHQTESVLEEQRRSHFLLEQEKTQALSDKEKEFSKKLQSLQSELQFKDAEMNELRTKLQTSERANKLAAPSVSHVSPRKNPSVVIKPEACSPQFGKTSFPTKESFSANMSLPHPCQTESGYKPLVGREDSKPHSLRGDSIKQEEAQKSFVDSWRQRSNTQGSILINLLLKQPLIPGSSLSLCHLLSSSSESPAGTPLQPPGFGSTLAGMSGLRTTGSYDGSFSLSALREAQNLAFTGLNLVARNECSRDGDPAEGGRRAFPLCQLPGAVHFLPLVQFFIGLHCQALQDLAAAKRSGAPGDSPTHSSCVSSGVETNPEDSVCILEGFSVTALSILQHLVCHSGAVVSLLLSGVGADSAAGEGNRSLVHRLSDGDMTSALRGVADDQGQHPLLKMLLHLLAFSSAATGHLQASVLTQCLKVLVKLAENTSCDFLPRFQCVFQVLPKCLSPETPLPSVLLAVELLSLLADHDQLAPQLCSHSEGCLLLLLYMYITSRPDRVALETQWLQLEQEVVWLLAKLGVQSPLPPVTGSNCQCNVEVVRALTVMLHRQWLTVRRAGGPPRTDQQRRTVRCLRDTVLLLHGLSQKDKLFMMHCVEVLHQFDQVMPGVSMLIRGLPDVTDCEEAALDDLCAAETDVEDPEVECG
# experimentDescription: ATR/ATRIP kinase assay (TR-FRET, p53 phosphorylation)
# Type: biochemical
In this section, each of the molecules is paired with its reported IC50.
measuredParameter: IC50

1) C[C@@H]1COC[C@H]2COc3c(nc(-c4ccc(C5(CO)CN5)cc4)nc3C(C)(C)S(C)(=O)=O)N21 (some centres unmarked) = 0.5 to 30 µM
2) C[C@@H]1COC[C@H]2COc3c(nc(-c4cccc(C5(CO)CN5)c4)nc3C(C)(C)S(C)(=O)=O)N21 (some centres unmarked) = 0.5 to 30 µM

---

# testedSystem: ATR/ATRIP (Homo sapiens)
# Construct: human ATR, full length, GenBank ID: NM_001184.3; p53: Sf21 insect cells
# experimentDescription: ATR/ATRIP kinase assay (TR-FRET, p53 phosphorylation)
# Type: biochemical
# experimentalParameters: Table 1, class symbols; read-out: ATR-ATRIP IC50
pIC50: −log10 of the molar value.
In this section, each of the molecules is paired with its reported pIC50.
measuredParameter: pIC50

1) C[C@@H]1COC[C@H]2COc3c(nc(-c4ccc5nc(N)ccc5c4)nc3C(C)(C)S(C)(=O)=O)N21 = > 9.00
2) C[C@@H]1COC[C@H]2COc3c(nc(-c4ccc5ncccc5c4)nc3C(C)(C)S(C)(=O)=O)N21 = 7.00 to 8.00
3) C[C@@H]1COC[C@H]2COc3c(nc(-n4cc(C#N)c5ccccc54)nc3C(C)(C)S(C)(=O)=O)N21 = 7.00 to 8.00
4) C[C@@H]1COC[C@H]2COc3c(nc(-c4c(N)cnc5[nH]ccc45)nc3C(C)(C)S(C)(=O)=O)N21 = > 9.00
5) C[C@@H]1COC[C@H]2COc3c(nc(-n4c(NC5COC5)nc5ccccc54)nc3C(C)(C)S(C)(=O)=O)N21 = 8.00 to 9.00
6) CNCc1c[nH]c2ncc(F)c(-c3nc4c(c(C(C)(C)O)n3)OC[C@@H]3COC[C@@H](C)N43)c12 = 7.00 to 8.00
7) C[C@@H]1COC[C@H]2COc3c(Cn4nncc4C(=O)O)nc(-c4ccnc5[nH]ccc45)nc3N21 = 7.00 to 8.00
8) C[C@@H]1COC[C@H]2COc3c(nc(N(C)c4nc5ccccc5[nH]4)nc3C(C)(C)S(C)(=O)=O)N21 = 7.00 to 8.00
9) C[C@@H]1COC[C@H]2COc3c(nc(C(=O)Nc4nnc[nH]4)nc3C(C)(C)S(C)(=O)=O)N21 = 7.00 to 8.00
10) C[C@@H]1COC[C@H]2COc3c(nc(-c4ccc(CN)cc4)nc3C(C)(C)S(C)(=O)=O)N21 = > 9.00
11) C[C@@H]1COC[C@H]2COc3c(nc(-n4c(N)nc5ccccc54)nc3C(C)(C)S(C)(=O)=O)N21 = > 9.00
12) C[C@@H]1COC[C@H]2COc3c(nc(Nc4ccn[nH]4)nc3C(C)(C)S(C)(=O)=O)N21 = > 9.00
13) COC(=O)c1cn(Cc2nc(-c3ccnc4c3ccn4C)nc3c2OC[C@@H]2COC[C@@H](C)N32)nn1 = 6.30 to 7.00
14) C[C@@H]1COC[C@H]2COc3c(nc(-c4ccc(-c5ccn[nH]5)cc4)nc3C(C)(C)S(C)(=O)=O)N21 = 7.00 to 8.00
15) CNc1cnc2[nH]ccc2c1-c1nc2c(c(C(C)(C)O)n1)OC[C@@H]1COC[C@@H](C)N21 = 8.00 to 9.00
16) C[C@@H]1COC[C@H]2COc3c(nc(-c4ccnc5[nH]ccc45)nc3C(C)(C)S(C)(=O)=O)N21 = > 9.00
17) C[C@@H]1COC[C@H]2COc3c(nc(-c4cncc(CO)c4)nc3C(C)(C)S(C)(=O)=O)N21 = 8.00 to 9.00
18) C[C@@H]1COC[C@H]2COc3c(nc(C(=O)N4CC[C@@H](N)C4)nc3C(C)(C)S(C)(=O)=O)N21 = 4.52 to 6.30
19) C[C@@H]1COC[C@H]2COc3c(nc(NCc4cn[nH]c4)nc3C(C)(C)S(C)(=O)=O)N21 = 4.52 to 6.30
20) C[C@@H]1COC[C@H]2COc3c(Cn4cc(C(=O)O)nn4)nc(-c4ccnc5[nH]ccc45)nc3N21 = 8.00 to 9.00
21) CCNc1cnc2[nH]ccc2c1-c1nc2c(c(C(C)(C)S(C)(=O)=O)n1)OC[C@@H]1COC[C@@H](C)N21 = 8.00 to 9.00
22) CNc1nc2ccccc2n1-c1nc(Cn2cc(C(=O)OC)nn2)c2c(n1)N1[C@@H](COC[C@H]1C)CO2 = 7.00 to 8.00
23) CNc1cnc2[nH]ccc2c1-c1nc2c(c(C(C)(C)S(C)(=O)=O)n1)OC[C@@H]1COC[C@@H](C)N21 = > 9.00
24) C[C@@H]1COC[C@H]2COc3c(nc(C(=O)Nc4ncccn4)nc3C(C)(C)S(C)(=O)=O)N21 = 4.52 to 6.30
25) CNc1nccn1-c1nc2c(c(C(C)(C)S(C)(=O)=O)n1)OC[C@@H]1COC[C@@H](C)N21 = 7.00 to 8.00
26) C[C@@H]1COC[C@H]2COc3c(nc(N(C)c4ccn[nH]4)nc3C(C)(C)S(C)(=O)=O)N21 = 7.00 to 8.00
27) C[C@@H]1COC[C@H]2COc3c(nc(-c4c(F)ncc5c4ccn5C)nc3C(C)(C)S(C)(=O)=O)N21 = 4.52 to 6.30
28) C[C@@H]1COC[C@H]2COc3c(nc(C(=O)N4CC[C@@H](O)C4)nc3C(C)(C)S(C)(=O)=O)N21 = 4.52 to 6.30
29) CNc1ncc2[nH]ccc2c1-c1nc2c(c(C(C)(C)S(C)(=O)=O)n1)OC[C@@H]1COC[C@@H](C)N21 = > 9.00
30) C[C@@H]1COC[C@H]2COc3c(nc(C(=O)NC[C@@H](C)O)nc3C(C)(C)S(C)(=O)=O)N21 = 4.52 to 6.30
